- assayed target: PEG-3 (UniProt Q6IN02)
- Sequence (Q6IN02 whole entry, looked up): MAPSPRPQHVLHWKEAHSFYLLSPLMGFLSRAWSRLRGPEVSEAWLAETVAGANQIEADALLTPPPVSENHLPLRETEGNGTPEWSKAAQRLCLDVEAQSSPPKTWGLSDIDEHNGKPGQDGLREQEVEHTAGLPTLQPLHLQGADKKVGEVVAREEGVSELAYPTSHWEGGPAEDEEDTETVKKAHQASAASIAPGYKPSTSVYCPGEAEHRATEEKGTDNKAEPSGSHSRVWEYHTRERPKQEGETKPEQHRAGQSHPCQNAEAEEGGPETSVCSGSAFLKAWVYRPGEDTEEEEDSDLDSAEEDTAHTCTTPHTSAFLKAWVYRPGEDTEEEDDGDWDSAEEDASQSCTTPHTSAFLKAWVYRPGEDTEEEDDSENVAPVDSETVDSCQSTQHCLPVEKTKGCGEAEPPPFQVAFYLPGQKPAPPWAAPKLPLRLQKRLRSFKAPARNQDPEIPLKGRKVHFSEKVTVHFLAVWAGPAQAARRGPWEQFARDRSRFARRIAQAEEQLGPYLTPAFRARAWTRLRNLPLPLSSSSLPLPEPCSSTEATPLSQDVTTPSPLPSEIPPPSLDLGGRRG
- test name: Peg3 promoter luciferase inhibitors, potency, dose response, cell-based, HeLa, CREF/GAPDH counter-screen panel (AID 624167)
- test conditions: HeLa PEG-Prom luciferase reporter, overnight, CREF/GAPDH counter-screens, mean of runs
Active and inactive are the calls of the source.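 How the source made its calls: active means mean IC50 for reducing PEG3 promoter reporter signal at or below a set limit, with IC50 above the limit in both counter screens; inactive means the rest, including counter screen hits.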
Outcomes: active, inactive

{"compound": "CCOC(=O)c1cccc(Nc2nc(-c3cccnc3)nc3ccccc23)c1", "assigned class": "active"}
{"compound": "O=S(=O)(c1cccs1)N1CCN(c2ccnc3cc(Cl)ccc23)CC1", "assigned class": "active"}
{"compound": "Cc1nc(N2CCN(S(=O)(=O)c3ccccc3C#N)CC2)c2c(-c3ccccc3)csc2n1", "assigned class": "inactive"}
{"compound": "CCn1nc(C)cc1-c1nnc(Sc2ncc([N+](=O)[O-])s2)n1C", "assigned class": "active"}
{"compound": "CN(C)CCNc1ccc(CO)c2oc3ccc(O)cc3c(=O)c12", "assigned class": "active"}
{"compound": "Cc1c(C(=O)N2CCC3(CC2)OCCO3)sc2ncnc(N3CCN(c4ccccn4)CC3)c12", "assigned class": "inactive"}
{"compound": "Cc1cccc(CN2C(=O)[C@H]3Cc4c([nH]c5ccccc45)C(C)(C)N3C2=O)c1", "assigned class": "inactive"}
{"compound": "O=C(CCSc1nc2ccccc2s1)N/N=C/c1c(O)ccc2ccccc12", "assigned class": "active"}
{"compound": "Cc1cccc(N2CCN(C(=O)C3CCN(c4ncnc5c4nc4n5CCCCC4)CC3)CC2)c1C", "assigned class": "inactive"}
{"compound": "Oc1c(I)cc(Cl)c2cccnc12", "assigned class": "active"}
{"compound": "CN[C@H]1C[C@H]2c3[nH]c4ccc(-c5cccc(C)c5)cc4c3CCN2C[C@H]1[C@H](C)O", "assigned class": "active"}
{"compound": "CN1OC[C@@H]2CN(S(=O)(=O)c3cccc(C(F)(F)F)c3)[C@H](c3ccc(-c4cc5ccccc5o4)cc3)C[C@@H]21", "assigned class": "active"}
{"compound": "Cc1ccccc1CNC(=O)C1CCCN(c2nnc(C)c3c(C)n(-c4ccccc4)nc23)C1 (stereo unspecified)", "assigned class": "active"}
{"compound": "Cc1noc(-c2ccc(Cl)cc2)c1C(=O)O/N=C(\\N)c1ccc(C(C)(C)C)cc1", "assigned class": "active"}
{"compound": "CC1CCN(c2ccc(-c3cccc(NC(=O)C(F)(F)F)c3)nn2)CC1", "assigned class": "active"}
{"compound": "CC(C)(C)c1ccc(/C=N/Nc2ccc(C(=O)O)cc2)cc1", "assigned class": "inactive"}

* * *

- Tested on: Rat fibroblasts (CREF)
- test name: Peg3 promoter luciferase inhibitors, potency, dose response, cell-based, HeLa, CREF/GAPDH counter-screen panel (AID 624167)
- test conditions: CREF/GAPDH counter-screens, run 1, dose range 1, individual replicate IC50 per panel
pIC50: −log10 of the molar value.
Respond with 1.0 for pIC50 values of 5 and above, 0.0 for values below.

{"compound": "CC(=O)NC(c1ccc(Cl)cc1Cl)c1ccc2cccnc2c1O (stereo not drawn)", "assigned class": 0.0}
{"compound": "CS(=O)(=O)c1ccc(-c2sc3ccccc3c2C#CCCO)cc1", "assigned class": 0.0}
{"compound": "O=C(O)c1cccc(COc2ccccc2Cl)c1", "assigned class": 0.0}
{"compound": "CN(c1ccc2nc3ccccc3c(=O)n2n1)C1CCCCC1", "assigned class": 1.0}
{"compound": "OCCNc1c2ccccc2nc2ccccc12", "assigned class": 0.0}
{"compound": "Cc1csc(NC(=O)c2cn3ccccc3n2)n1", "assigned class": 1.0}
{"compound": "Cc1cc(/C=N/Nc2ncnc(N)c2[N+](=O)[O-])c(C)n1-c1ccccc1", "assigned class": 1.0}

* * *

- Test system: Rat fibroblasts (CREF)
- test name: Peg3 promoter luciferase inhibitors, potency, dose response, cell-based, HeLa, CREF/GAPDH counter-screen panel (AID 624167)
- test conditions: CREF/GAPDH counter-screens, run 2, dose range 1, individual replicate IC50 per panel

{"compound": "S=C(NN=C(c1ccccc1)c1ccccn1)N(Cc1ccccn1)Cc1ccccn1", "measure unit": "µM", "IC50": 9.4}
{"compound": "COC(=O)C1C=CC(OC2OC(COC(C)=O)C(OC(C)=O)C(OC(C)=O)C2OC(C)=O)n2c(=O)n(-c3ccccc3)c(=O)n21 (centres undefined)", "measure unit": "µM", "IC50": 9.29}
{"compound": "O=C(Nc1ncc([N+](=O)[O-])s1)c1ccc2c(c1)OCO2", "measure unit": "µM", "IC50": 12.8}
{"compound": "CCCCCCN1C=C/C(=C\\C=C(C#N)C#N)c2ccccc21", "measure unit": "µM", "IC50": 10.7}

* * *

- Test system: Rat fibroblasts (CREF)
- test name: Peg3 promoter luciferase inhibitors, potency, dose response, cell-based, HeLa, CREF/GAPDH counter-screen panel (AID 624167)
- test conditions: CREF/GAPDH counter-screens, run 2, dose range 1, individual replicate IC50 per panel
Recorded IC50 by entry

{"smiles record": "O=C(CNC(=O)C(c1ccccc1)c1ccccc1)N/N=C/c1ccc(O)cc1O", "measure unit": "µM", "result comparator": ">", "IC50": 100}
{"smiles record": "CN=c1scc(-c2ccccc2F)n1/N=C/c1ccc[nH]1", "measure unit": "µM", "result comparator": "=", "IC50": 4.63}
{"smiles record": "Fc1ccc(-c2nnc(NC3=NCCCCC3)o2)cc1", "measure unit": "µM", "result comparator": "=", "IC50": 3.23}
{"smiles record": "CCCN1C=CC(=C2C(=O)c3ccccc3C2=O)C=C1", "measure unit": "µM", "result comparator": "=", "IC50": 0.606}
{"smiles record": "O=C(Nc1cc(S(=O)(=O)N2CCOCC2)ccc1Cl)c1cc([N+](=O)[O-])ccc1Cl", "measure unit": "µM", "result comparator": "=", "IC50": 6.14}

* * *

- System: PEG-3
- test name: Peg3 promoter luciferase inhibitors, potency, dose response, cell-based, HeLa, CREF/GAPDH counter-screen panel (AID 624167)
- test conditions: HeLa PEG-Prom luciferase reporter, overnight, CREF/GAPDH counter-screens, run 1, dose range 1, individual replicate IC50 per panel
Returns: string. Value is Satisfied if measured IC50 is below 20 µM, and Not satisfied if it is greater than or equal to it.

{"compound": "O=Cc1cn(Cc2ccc(F)cc2)c2ccccc12", "assigned class": "Satisfied"}
{"compound": "COc1ccc(-n2nnnc2C(C2CC2)N2CCC(n3c(=O)[nH]c4ccccc43)CC2)cc1 (configuration not stated)", "assigned class": "Not satisfied"}
{"compound": "COc1cc(Nc2c3ccccc3nc3ccccc23)cc(OC)c1OC", "assigned class": "Satisfied"}
{"compound": "Cc1noc(-c2ccc(Cl)cc2)c1C(=O)O/N=C(\\N)c1ccc(C(C)(C)C)cc1", "assigned class": "Satisfied"}
{"compound": "CCCCN(C)CCNC(=O)c1cc(-c2cccnc2)nc2ccc(S(=O)(=O)N3CCC(C)CC3)cc12", "assigned class": "Satisfied"}
{"compound": "COc1ccc(/C=C2/CCCC(CN(C)C)C2=O)cc1 (configuration not stated)", "assigned class": "Satisfied"}
{"compound": "N=c1n(CCN2CCCCC2)c2ccccc2n1CC(O)c1ccc(Cl)c(Cl)c1 (configuration not stated)", "assigned class": "Satisfied"}
{"compound": "CCN(c1ccccc1)S(=O)(=O)c1ccc(C(=O)N(CCCN(C)C)c2nc3cc4c(cc3s2)OCO4)cc1", "assigned class": "Not satisfied"}
{"compound": "COc1cc(-c2cc(C(=O)Nc3cc(S(=O)(=O)N4CCOCC4)ccc3C)c3ccccc3n2)cc(OC)c1OC", "assigned class": "Satisfied"}
{"compound": "COc1ccc(C23CC4CC(CC(C4)C2)C3)cc1C(=O)NCCN(C)C", "assigned class": "Not satisfied"}
{"compound": "O=C(/C=C/c1ccccc1)NC(NC(=S)Nc1cccc(Cl)c1)C(Cl)(Cl)Cl (configuration not stated)", "assigned class": "Satisfied"}
{"compound": "COc1ccc(-c2cc3nc(C)n(N)c(=O)c3s2)cc1", "assigned class": "Satisfied"}
{"compound": "CC1=CC2C(C(O)CC3(C)C2CC(C)C32OCOC23COCO3)C2(C)C/C(=C\\O)C(=O)C=C12 (configuration not stated)", "assigned class": "Satisfied"}
{"compound": "COc1ccc(C2c3c(ncn(CCCN4CCOCC4)c3=N)Oc3ccc4ccccc4c32)cc1OC (configuration not stated)", "assigned class": "Not satisfied"}
{"compound": "O=S(=O)(CC(CN1CCCCC1)N1CCCCC1)c1ccccc1 (configuration not stated)", "assigned class": "Not satisfied"}
{"compound": "CCCOc1ccc2cc(-c3ccccn3)c(=O)oc2c1", "assigned class": "Satisfied"}
{"compound": "CCN(Cc1ccccc1)S(=O)(=O)c1ccc(C(=O)N(CCCN(C)C)c2nc3cc4c(cc3s2)OCCO4)cc1", "assigned class": "Not satisfied"}
{"compound": "CS(=O)(=O)c1ccc2nc(NC(=O)CCS(=O)(=O)c3ccccc3)sc2c1", "assigned class": "Not satisfied"}
{"compound": "COc1cccc(/C=N/Nc2cc(C)nc(-c3ccccc3O)n2)c1O", "assigned class": "Satisfied"}
{"compound": "O=C(N/N=C\\c1c(O)ccc2ccccc12)c1cncc(Br)c1", "assigned class": "Satisfied"}
{"compound": "O=C(Nc1ccccc1N1CCOCC1)c1cc(-c2ccncc2)nc2ccccc12", "assigned class": "Not satisfied"}
{"compound": "O=C1N[C@@H](c2ccccc2)COC(=O)[C@@H](Cc2ccc(F)cc2)CC/C=C/C[C@H]1CC(=O)N(CCO)Cc1ccccc1", "assigned class": "Not satisfied"}
{"compound": "O=C(C(=O)N(Cc1ccccc1)Cc1ccccc1)c1c(-c2ccccc2)[nH]c2ccccc12", "assigned class": "Not satisfied"}
{"compound": "C[C@@H]1[C@H]2[C@@H]3CC[C@@H](C3)[C@H]2CN[C@H]1c1cn(Cc2ccccc2)c2ccccc12", "assigned class": "Not satisfied"}
{"compound": "CCc1ccc(/C=C2\\SC(=S)N(CCCC(=O)NC3=NCCS3)C2=O)cc1", "assigned class": "Satisfied"}
{"compound": "O=C1C(Cl)=C(Nc2ccccc2)C(=O)c2ccccc21", "assigned class": "Satisfied"}
{"compound": "COc1cccc(NC(=O)CN(C)C(=O)c2cc(-c3ccc(F)cc3)nc3ccccc23)c1", "assigned class": "Not satisfied"}
{"compound": "c1cc2c3c(cccc3c1)NC1(CCC3(CC1)Nc1cccc4cccc(c14)N3)N2", "assigned class": "Satisfied"}
{"compound": "S=C(NN=C(c1ccccc1)c1ccccn1)N(Cc1ccccn1)Cc1ccccn1", "assigned class": "Satisfied"}
{"compound": "COc1cc(/C=C/[N+](=O)[O-])ccc1OC(=O)/C=C/c1ccc(F)cc1", "assigned class": "Not satisfied"}
{"compound": "COc1ccc(-n2cc(CNC3CCN(C)CC3)c(-c3cccc(F)c3)n2)cc1", "assigned class": "Not satisfied"}
